// values below are reported EC50
System Name: human CLEC12A expressed on cells (human) (UniProt Q5QGZ9)
Sequence (Q5QGZ9 whole entry): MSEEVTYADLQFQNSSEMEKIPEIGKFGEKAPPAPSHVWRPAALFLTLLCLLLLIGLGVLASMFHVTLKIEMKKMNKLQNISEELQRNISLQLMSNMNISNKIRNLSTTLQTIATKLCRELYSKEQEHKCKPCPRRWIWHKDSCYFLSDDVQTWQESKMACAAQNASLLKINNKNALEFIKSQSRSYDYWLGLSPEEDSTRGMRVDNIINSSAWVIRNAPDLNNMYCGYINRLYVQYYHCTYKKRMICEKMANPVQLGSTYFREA
Method Summary: flow cytometry, hCLEC12A+Ba/F3 cells
Number in nM, nothing else.

Binder	Meas Value
AB0186 (bispecific antibody, part only; not given: Fc, unrelated binder arm, linkers, not shown: another chain or arm of the molecule; a dimerising Fc or GST; small tags and cut ends) scFv: DIQMTQSPSSLSASVGDRVTITCKASQDIYNYLSWFQQKPGKAPKPLIYRANILVSGVPSRFSGSGSGQDYTFTISSLQPEDIATYYCLQFDAFPFTFGCGTKLEIKGGGGSGGGGSGGGGSGGGGSEVQLVESGGGVVQPGGSLRLSCAASGFTFNAFGMHWVRQAPGKCLEWVAFISSGSTSIYYANTVKGRFTISRDNSKNTLYLQMNSLRAEDTAVYYCARDGYPTGGAMDYWGQGTSVTVSS	0.7
AB0192 (bispecific antibody, part only; not given: Fc, unrelated binder arm, linkers, not shown: another chain or arm of the molecule; a dimerising Fc or GST; small tags and cut ends) scFv: EVQLVESGGGVVQPGGSLRLSCAASGFTFNAFGMHWVRQAPGKCLEWVAFISSGSTSIYYANTVKGRFTISRDNSKNTLYLQMNSLRAEDTAVYYCARDGYPTGGAMDYWGQGTSVTVSSGGGGSGGGGSGGGGSGGGGSDIQMTQSPSSLSASVGDRVTITCKASQDIYNYLSWFQQKPGKAPKPLIYRANILVSGVPSRFSGSGSGQDYTFTISSLQPEDIATYYCLQFDAFPFTFGCGTKLEIK	0.7

Please turn your attention to the following entry.
For AB0191 (bispecific antibody, part only; not given: Fc, unrelated binder arm, linkers, not shown: another chain or arm of the molecule; a dimerising Fc or GST; small tags and cut ends) scFv: EVQLVESGGGVVQPGGSLRLSCAASGFTFNSFGMHWVRQAPGKCLEWVAFISSGSTSIYYANTVKGRFTISRDNSKNTLYLQMNSLRAEDTAVYYCARDGYPTGGAMDYWGQGTSVTVSSGGGGSGGGGSGGGGSGGGGSDIQMTQSPSSLSASVGDRVTITCKASQDIYNYLSWFQQKPGKAPKPLIYRANILVSGVPSRFSGSGSGQDYTFTISSLQPEDIATYYCLQFDAFPFTFGCGTKLEIK the binder record lists EC50 as 0.6

Values compiled from patent US20230220084A1.
